system: A498 renal; test: NCI tumour cell line growth inhibition, 48 h
Where a SMILES comes first, the peptide text is derived from it.
The following compounds are listed with their measured TGI values.
QUANTITY_MEASURED: TGI

| COMPOUND | TARGET_SYSTEM | VAL |
| --- | --- | --- |
| O=S(=O)(N/N=C/c1ccc(Cl)cc1Cl)c1ccccc1 | A498 renal | > 100 µM |
| CNc1ncc2cc(Oc3ccc(F)cc3F)c(=O)n(C)c2n1 | A498 renal | > 25 µM |
| c1cc(C[S+]2CCCC2)oc1C[S+]1CCCC1 | A498 renal | > 100 µM |
| CCCc1cc(-c2ccc(-c3cc(CCC)c(C=O)[nH]3)s2)[nH]c1C=O | A498 renal | > 100 µM |
| O=C(O)CO/N=C1/C(c2c(O)[nH]c3ccccc23)=Nc2ccccc21 | A498 renal | > 100 µM |
| Cn1nc(C(=O)N2CC(CCl)c3c2cc([N+](=O)[O-])c2ccccc32)cc1NC(=O)Nc1cc(C(=O)N2CC(CCl)c3c2cc([N+](=O)[O-])c2ccccc32)nn1C (stereo not given) | A498 renal | > 100 µM |
| Clc1ccc(/C=C/c2nc(Cl)c(-c3ccc(Cl)cc3)c(Cl)n2)cc1 | A498 renal | > 100 µM |
| O=C(Nc1ccc(S(=O)(=O)Nc2ncccn2)cc1)c1c2ccccc2nc2ccccc12 | A498 renal | > 100 µM |
| CC(=O)NC(CO)C(=O)NC(Cc1ccc(O)cc1)C(=O)NCC(N)=O (stereo not drawn) (Ac-Ser-Tyr-Gly-NH2; configuration not given here) | A498 renal | > 100 µM |
| COC1OC(C(C)O)C2OC(C)(C)OC12 (stereo not given) | A498 renal | > 100 µM |
| Cc1ccc(-c2c3c(N)c4c(nc3nc3c2c(C)nn3-c2ccccc2)CCC4)cc1 | A498 renal | 32.6 µM |
| O=c1[nH]nc(-c2ccccc2)c2c(-c3ccccc3)onc12 | A498 renal | 3.69 µM |
| [O-][n+]1c2cc(CN3CCOCC3)c(CN3CCOCC3)cc2[n+]([O-])c2c(O)cccc21 | A498 renal | 31.5 µM |
| S=C(Nc1cccc(C2(N3CCCCC3)CCCCC2)c1)Nc1cccc(C2(N3CCCCC3)CCCCC2)c1 | A498 renal | 35.1 µM |
| CSc1nc(C)c(CCCl)c(Cl)n1 | A498 renal | > 100 µM |
| CC/C=C/C(/C=C/C[C@]1(CC)C[C@H](CC)[C@H](CC(=O)O)OO1)CC (stereo not given in full) | A498 renal | 28.9 µM |
| COc1ccccc1Cn1[nH]c(=O)c2cc([N+](=O)[O-])ccc21 | A498 renal | > 100 µM |
| O=C1NN=CN2C(=O)CCC12 (stereo not given) | A498 renal | > 100 µM |
| COc1ccc(/C(C#N)=C(/N)SCc2ccccc2Cl)cc1 | A498 renal | 42.3 µM |
| CC(=O)C1=NN(c2ccccc2)C2(S1)SC(c1ccccc1)(c1ccccc1)c1ccccc12 (stereo not given) | A498 renal | > 100 µM |

---

tested on: HCT-116 colon; experiment: NCI tumour cell line growth inhibition, 48 h

| MOLECULE | TGI |
| --- | --- |
| CCCC(CCC)C(=O)OCC1(CO)C/C(=C\c2ccc(C(F)(F)F)cc2)C(=O)O1 (stereo not drawn) | 25.6 µM |
| NNC(=S)N/N=C(/C(=O)Nc1ccc([N+](=O)[O-])cc1)c1nc2ccc([N+](=O)[O-])cc2[nH]c1=O | > 100 µM |
| Cc1cc(Cl)ccc1NC(=O)C(=O)Cc1occc(=O)c1O | > 100 µM |

---

test system: SNB-75 CNS; assay: NCI tumour cell line growth inhibition, 48 h
QUANTITY_MEASURED: TGI

| MOLECULE | TARGET_SYSTEM | VAL |
| --- | --- | --- |
| COc1ccc(/C=C(\Cl)c2ccc(OC)cc2)cc1 | SNB-75 CNS | > 100 µM |
| C=C(CC)C[C@@H]1C[C@]2(C(=O)OC)c3[nH]c4ccccc4c3CCN2C1=O | SNB-75 CNS | 66.2 µM |
| CC(C)(C)N=c1n(C(C)(C)C)oc(=O)n1-c1ccccc1 | SNB-75 CNS | > 50 µM |
| COC(=O)CNCC1OC2OC(C)(C)OC2C1N=[N+]=[N-] (stereo not drawn) | SNB-75 CNS | > 100 µM |
| O=C(O)c1cc(=O)c2cc(C(=O)c3cccs3)c(Cl)c(Cl)c2o1 | SNB-75 CNS | > 100 µM |
| Nc1nc(NCCOCP(=O)(O)O)c(N)c(=O)[nH]1 | SNB-75 CNS | > 100 µM |
| CC1CC(=O)c2c(ccc3c2C(=O)c2cccc(O)c2C3=O)C1 (stereo not drawn) | SNB-75 CNS | 22.9 µM |
| CSc1nc(C)c(CCCl)c(Cl)n1 | SNB-75 CNS | > 100 µM |
